system: Arginase-1 (Bos taurus)
Sequence (Q2KJ64 whole entry): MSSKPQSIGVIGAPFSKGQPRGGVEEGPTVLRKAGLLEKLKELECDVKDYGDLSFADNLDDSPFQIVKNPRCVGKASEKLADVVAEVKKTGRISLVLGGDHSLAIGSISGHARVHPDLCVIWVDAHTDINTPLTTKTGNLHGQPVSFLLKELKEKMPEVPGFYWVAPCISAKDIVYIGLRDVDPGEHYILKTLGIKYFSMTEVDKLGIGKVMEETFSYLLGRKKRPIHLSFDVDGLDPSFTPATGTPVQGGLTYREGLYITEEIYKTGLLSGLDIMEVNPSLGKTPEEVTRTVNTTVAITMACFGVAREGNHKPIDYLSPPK
method: Inhibition of recombinant bovine liver ARGI using L-arginine as substrate incubated for 60 mins by spectroscopic analysis
measurement.kind: IC50 (µM)

compound	system	measurement.kind	reported.measurement
Oc1ccc(CNCc2cccc(Cl)c2)cc1O	Arginase-1 (Bos taurus)	IC50	329
Oc1ccc(O)c(O)c1	Arginase-1 (Bos taurus)	IC50	360
Oc1cccc(NCc2ccc(O)c(O)c2)c1	Arginase-1 (Bos taurus)	IC50	83
O=C(O)/C=C/c1ccc(O)c(O)c1 [CAFFEIC ACID]	Arginase-1 (Bos taurus)	IC50	131
NCc1ccc(O)c(O)c1	Arginase-1 (Bos taurus)	IC50	164
Oc1cc(O)cc(NCc2ccc(O)c(O)c2)c1	Arginase-1 (Bos taurus)	IC50	141
Oc1ccc(CNCCc2c[nH]cn2)cc1O	Arginase-1 (Bos taurus)	IC50	318
Oc1ccccc1O [CATECHOL]	Arginase-1 (Bos taurus)	IC50	123
Oc1ccc(CNCc2ccccc2)cc1O	Arginase-1 (Bos taurus)	IC50	145
Oc1ccc(CNc2ccc(O)c(O)c2)cc1O	Arginase-1 (Bos taurus)	IC50	76
NCCc1ccc(O)c(O)c1 [DOPAMINE]	Arginase-1 (Bos taurus)	IC50	128
Oc1cccc(Br)c1O	Arginase-1 (Bos taurus)	IC50	274
Oc1ccc(CNCc2ccc3c(c2)OCO3)cc1O	Arginase-1 (Bos taurus)	IC50	226
NCCCNCc1ccc(O)c(O)c1	Arginase-1 (Bos taurus)	IC50	343
COc1cccc(CNCc2ccc(O)c(O)c2)c1	Arginase-1 (Bos taurus)	IC50	300
O=C(O)c1cc(O)cc(NCc2ccc(O)c(O)c2)c1	Arginase-1 (Bos taurus)	IC50	108
COc1ccc(CNCc2ccc(O)c(O)c2)cc1	Arginase-1 (Bos taurus)	IC50	389
Oc1ccc(CNc2ccccc2)cc1O	Arginase-1 (Bos taurus)	IC50	164

====

system: Arginase-1 (Bos taurus)
method: Inhibition of recombinant bovine liver ARGI using L-arginine as substrate incubated for 60 mins by spectroscopic analysis

compound	unit.of.measurement	IC50
Oc1ccc(CNCCc2ccccc2)cc1O	µM	367
Oc1ccc(CNCc2cc(Cl)cc(Cl)c2)cc1O	µM	277
O=C(O)c1cc(NCc2ccc(O)c(O)c2)ccc1O	µM	187
Nc1ccc(O)c(O)c1	µM	478
N=C(NO)NCC[C@H](N)C(=O)O	µM	2.7
Oc1ccc(NCc2ccc(O)c(O)c2)cc1	µM	238
COC(=O)c1ccc(O)c(O)c1 [METHYL PROTOCATECHUATE]	µM	285
COc1cccc(NCc2ccc(O)c(O)c2)c1	µM	185
COc1ccc(NCc2ccc(O)c(O)c2)cc1	µM	154
Oc1ccc(CNCCN2CCOCC2)cc1O	µM	467
Oc1cc(O)cc(/C=C/c2ccc(O)c(O)c2)c1	µM	47
CCOC(=O)C(NCc1ccc(O)c(O)c1)C(=O)OCC	µM	362
OCc1ccc(O)c(O)c1	µM	106
